Values were extracted from paper PMC8138313.

target or system: HLA A*0201 (Homo sapiens, UniProt P04439, D140Y/D185E/D98H/E176V/E277Q/G131W/G231S/I119V/I121R/I166T/I218V/L300P/L318F/N151K/N90K/P208A/P217A/Q86G/Q94H/R138H/R169H/T345S)
test method notes: HLA class I binding assay (cell-free competition, fluorescence polarization)
Where a SMILES comes first, the peptide text is derived from it.
Listed next: entries and their corresponding IC50.
Numbers only here, please. The scale is µM.

Guide cases for IC50, answers given:
compound	IC50 (µM)
CC[C@H](C)[C@H](NC(=O)[C@H](CO)NC(=O)[C@H](CCCCN)NC(=O)[C@H](CO)NC(=O)[C@H](CC(N)=O)NC(=O)[C@@H](NC(=O)[C@H](CO)NC(=O)[C@H](Cc1ccc(O)cc1)NC(=O)[C@H](CC(C)C)NC(=O)[C@@H](N)CCCCN)[C@@H](C)CC)C(=O)O (H-KLYSINSKSI-OH)	57.7
CC(C)C[C@H](NC(=O)[C@@H]1CCCN1C(=O)[C@H](Cc1ccccc1)NC(=O)[C@H](CC(N)=O)NC(=O)[C@H](Cc1ccccc1)NC(=O)[C@H](CC(N)=O)NC(=O)[C@H](CCC(=O)O)NC(=O)[C@H](CC(C)C)NC(=O)[C@@H](N)Cc1ccccc1)C(=O)O (H-FLENFNFPL-OH)	3.68
CC(C)C[C@H](NC(=O)[C@H](Cc1ccccc1)NC(=O)[C@H](CO)NC(=O)[C@H](Cc1ccccc1)NC(=O)[C@H](CS)NC(=O)[C@H](Cc1ccccc1)NC(=O)[C@H](CC(C)C)NC(=O)[C@H](CC(N)=O)NC(=O)[C@H](CC(C)C)NC(=O)[C@@H](N)CCCNC(=N)N)C(=O)O (H-RLNLFCFSFL-OH)	161
CC(C)C[C@H](NC(=O)[C@H](CC(=O)O)NC(=O)[C@H](CC(C)C)NC(=O)[C@H](CO)NC(=O)[C@@H]1CCCN1C(=O)[C@H](CCCCN)NC(=O)[C@H](CC(N)=O)NC(=O)[C@H](CC(C)C)NC(=O)[C@H](CC(C)C)NC(=O)[C@@H](N)CCCCN)C(=O)O (H-KLLNKPSLDL-OH)	4.26
CC[C@H](C)[C@H](NC(=O)[C@@H](N)CO)C(=O)N[C@@H](C)C(=O)N[C@@H](CO)C(=O)N[C@@H](CCCCN)C(=O)N[C@@H](CC(N)=O)C(=O)N[C@@H](CC(C)C)C(=O)N[C@@H](CCSC)C(=O)N[C@@H](Cc1c[nH]c2ccccc12)C(=O)N[C@H](C(=O)O)C(C)C (H-SIASKNLMWV-OH)	284

What the record says about CC[C@H](C)[C@H](NC(=O)[C@@H]1CCCN1C(=O)[C@H](Cc1ccc(O)cc1)NC(=O)[C@H](CCC(N)=O)NC(=O)[C@H](CC(=O)O)NC(=O)[C@H](CO)NC(=O)[C@H](CCCCN)NC(=O)[C@H](CCSC)NC(=O)[C@@H](N)CCCCN)C(=O)O (H-KMKSDQYPI-OH) : IC50 is 3.07

###

Listed next: entries and their corresponding pIC50.
target or system: HLA A*0201 (Homo sapiens, UniProt P04439, D140Y/D185E/D98H/E176V/E277Q/G131W/G231S/I119V/I121R/I166T/I218V/L300P/L318F/N151K/N90K/P208A/P217A/Q86G/Q94H/R138H/R169H/T345S)
test method notes: HLA class I binding assay (cell-free competition, fluorescence polarization)
Where a SMILES comes first, the peptide text is derived from it.
pIC50 is a log-scale quantity: -log10 of the concentration expressed in molar.

Guide cases for pIC50, answers given:
compound	pIC50
CC(C)C[C@H](NC(=O)[C@H](CC(C)C)NC(=O)[C@H](CC(N)=O)NC(=O)[C@H](CC(C)C)NC(=O)[C@H](CC(C)C)NC(=O)[C@@H](N)Cc1ccccc1)C(=O)N[C@@H](CC(N)=O)C(=O)N[C@@H](CCC(=O)O)C(=O)N[C@@H](Cc1c[nH]cn1)C(=O)N[C@H](C(=O)O)C(C)C (H-FLLNLLNEHV-OH)	5.77
CC(C)C[C@H](NC(=O)[C@H](CC(N)=O)NC(=O)[C@H](C)NC(=O)[C@H](C)NC(=O)[C@H](CCCCN)NC(=O)[C@H](CCC(N)=O)NC(=O)[C@H](Cc1ccccc1)NC(=O)[C@H](CC(C)C)NC(=O)[C@@H](N)CC(C)C)C(=O)O (H-LLFQKAANL-OH)	5.73
CC[C@H](C)[C@H](NC(=O)[C@H](CCC(=O)O)NC(=O)[C@H](CC(N)=O)NC(=O)[C@H](CC(C)C)NC(=O)[C@H](CC(C)C)NC(=O)[C@@H]1CCCN1C(=O)[C@@H]1CCCN1C(=O)[C@H](CC(C)C)NC(=O)[C@@H](N)CCCCN)C(=O)O (H-KLPPLLNEI-OH)	5.57
CC[C@H](C)[C@H](NC(=O)[C@H](CC(N)=O)NC(=O)[C@@H](NC(=O)[C@H](CCSC)NC(=O)[C@@H](N)CO)[C@@H](C)O)C(=O)N1CCC[C@H]1C(=O)N[C@@H](CCSC)C(=O)N[C@@H](CC(N)=O)C(=O)N[C@H](C(=O)O)C(C)C (H-SMTNIPMNV-OH)	6.61
CC[C@H](C)[C@H](NC(=O)[C@H](CC(N)=O)NC(=O)[C@H](CCC(N)=O)NC(=O)[C@H](CCC(N)=O)NC(=O)[C@H](Cc1ccc(O)cc1)NC(=O)[C@H](CCSC)NC(=O)[C@@H](N)CC(N)=O)C(=O)N1CCC[C@H]1C(=O)N[C@@H](CC(C)C)C(=O)O (H-NMYQQNIPL-OH)	3.48

What the record says about CC(C)C[C@H](N)C(=O)N[C@H](C(=O)N[C@@H](Cc1c[nH]cn1)C(=O)N[C@@H](CCCCN)C(=O)N[C@@H](Cc1ccc(O)cc1)C(=O)N[C@@H](CC(N)=O)C(=O)N[C@@H](CCC(=O)O)C(=O)N[C@@H](Cc1ccccc1)C(=O)N[C@H](C(=O)O)C(C)C)[C@@H](C)O (H-LTHKYNEFV-OH) : pIC50 is 5.62

What the record says about CC[C@H](C)[C@H](NC(=O)[C@H](CC(=O)O)NC(=O)[C@H](CC(N)=O)NC(=O)[C@H](CC(N)=O)NC(=O)[C@H](CC(C)C)NC(=O)[C@@H](N)Cc1c[nH]c2ccccc12)C(=O)N[C@@H](Cc1ccc(O)cc1)C(=O)N[C@@H](CC(N)=O)C(=O)N[C@H](C(=O)O)C(C)C (H-WLNNDIYNV-OH) : pIC50 is 6.80

###

target or system: HLA A*2402 (Homo sapiens, UniProt P04439, D101N/D140Y/D185E/E176V/E190D/F33S/G103R/G107R/I119L/I121M/I306V/K335N/L105A/L180Q/L300P/N151K/N90K/Q86E/Q94H/R106L/R138H/R89G/T104I/T345S/V100E/W191G/Y123F)
test method notes: HLA class I binding assay (cell-free competition, fluorescence polarization)
Where a SMILES comes first, the peptide text is derived from it.
endpoint: IC50 (µM)
Numbers only here, please. The scale is µM.

What the record says about CC[C@H](C)[C@H](NC(=O)CNC(=O)[C@H](Cc1ccc(O)cc1)NC(=O)[C@@H](N)Cc1c[nH]cn1)C(=O)N[C@@H](CC(N)=O)C(=O)N1CCC[C@H]1C(=O)N[C@H](C(=O)N[C@@H](CCC(N)=O)C(=O)N[C@@H](CC(C)C)C(=O)O)C(C)C (H-HYGINPVQL-OH) : IC50 is 6.79

What the record says about CC[C@H](C)[C@H](NC(=O)[C@@H]1CCCN1C(=O)[C@H](Cc1ccc(O)cc1)NC(=O)[C@H](CCC(N)=O)NC(=O)[C@H](CC(=O)O)NC(=O)[C@H](CO)NC(=O)[C@H](CCCCN)NC(=O)[C@H](CCSC)NC(=O)[C@@H](N)CCCCN)C(=O)O (H-KMKSDQYPI-OH) : IC50 is 6.9

What the record says about C[C@@H](O)[C@H](NC(=O)[C@H](Cc1ccc(O)cc1)NC(=O)[C@H](CCCCN)NC(=O)[C@H](Cc1ccc(O)cc1)NC(=O)[C@@H](N)Cc1c[nH]c2ccccc12)C(=O)N[C@@H](CCC(=O)O)C(=O)N[C@@H](CO)C(=O)N[C@@H](CC(=O)O)C(=O)N[C@@H](Cc1ccccc1)C(=O)O (H-WYKYTESDF-OH) : IC50 is 2.51

What the record says about CC(C)C[C@H](NC(=O)[C@H](CC(N)=O)NC(=O)[C@H](CC(C)C)NC(=O)[C@@H](N)CCCNC(=N)N)C(=O)N[C@@H](Cc1ccccc1)C(=O)N[C@@H](CS)C(=O)N[C@@H](Cc1ccccc1)C(=O)N[C@@H](CO)C(=O)N[C@@H](Cc1ccccc1)C(=O)O (H-RLNLFCFSF-OH) : IC50 is 11
